This collection of values is drawn from BigSolDB 2.1.

conditionSummary: in water, 308.2 K
readoutType: solubility (mole fraction)
Give a plain numeric answer without units written out.

Incoming: Return value of solubility (mole fraction) for input Cc1ccc(-c2ncc(Cl)cc2-c2ccc(S(C)(=O)=O)cc2)cn1 , no commentary.
Outgoing: 2.12e-05

----------
conditionSummary: in n-propanol, 313.2 K
readoutType: solubility (mole fraction)
Give a plain numeric answer without units written out.

Incoming: Note solubility (mole fraction) for the molecule shown: Cc1ccc(-c2ncc(Cl)cc2-c2ccc(S(C)(=O)=O)cc2)cn1
Outgoing: 0.238

----------
conditionSummary: in DMAc, 303.2 K
readoutType: solubility (mole fraction)

Incoming: Tell me its solubility (mole fraction) given Cc1ccc(-c2ncc(Cl)cc2-c2ccc(S(C)(=O)=O)cc2)cn1 as the entry.
Outgoing: 0.141

----------
conditionSummary: in glycerin, 313.2 K
readoutType: solubility (mole fraction)
# respond with the number and nothing more

Incoming: Please give the documented solubility (mole fraction) of Cc1ccc(-c2ncc(Cl)cc2-c2ccc(S(C)(=O)=O)cc2)cn1
Outgoing: 0.0625

----------
conditionSummary: in 1,4-butanediol, 303.2 K
readoutType: solubility (mole fraction)
Kindly provide the number alone.

Incoming: Fill in reported solubility (mole fraction) for this entry: Cc1ccc(-c2ncc(Cl)cc2-c2ccc(S(C)(=O)=O)cc2)cn1
Outgoing: 0.0873

----------
conditionSummary: in PEG-200, 308.2 K
readoutType: solubility (mole fraction)

Incoming: Tell me its solubility (mole fraction) given Cc1ccc(-c2ncc(Cl)cc2-c2ccc(S(C)(=O)=O)cc2)cn1 as the entry.
Outgoing: 0.176

----------
conditionSummary: in methanol, 293.2 K
readoutType: solubility (mole fraction)
Could you respond with only the numeric value?

Incoming: Please report the measured solubility (mole fraction) for Cc1ccc(-c2ncc(Cl)cc2-c2ccc(S(C)(=O)=O)cc2)cn1
Outgoing: 0.0241

----------
conditionSummary: in NMP, 313.2 K
readoutType: solubility (mole fraction)
// return just the number, without any unit appended

Incoming: // fetch solubility (mole fraction) given entry Cc1ccc(-c2ncc(Cl)cc2-c2ccc(S(C)(=O)=O)cc2)cn1
Outgoing: 0.411

----------
conditionSummary: in 1,4-dioxane, 308.2 K
readoutType: solubility (mole fraction)

Incoming: Look up solubility (mole fraction) of Cc1ccc(-c2ncc(Cl)cc2-c2ccc(S(C)(=O)=O)cc2)cn1 and report it.
Outgoing: 0.173

----------
conditionSummary: in ethanol, 313.2 K
readoutType: solubility (mole fraction)
Lab note: record the figure alone, no unit after it.

Incoming: Please give measured solubility (mole fraction) of the following entry: Cc1ccc(-c2ncc(Cl)cc2-c2ccc(S(C)(=O)=O)cc2)cn1
Outgoing: 0.182

----------
conditionSummary: in ethanol, 293.2 K
readoutType: solubility (mole fraction)
Answer with a number only.

Incoming: Supply measured solubility (mole fraction) of Cc1ccc(-c2ncc(Cl)cc2-c2ccc(S(C)(=O)=O)cc2)cn1 in your reply.
Outgoing: 0.0337

----------
conditionSummary: in glycerin, 298.2 K
readoutType: solubility (mole fraction)
Just the number, please, no unit attached.

Incoming: Output measured solubility (mole fraction) for this item: Cc1ccc(-c2ncc(Cl)cc2-c2ccc(S(C)(=O)=O)cc2)cn1
Outgoing: 0.0566

----------
conditionSummary: in formamide, 293.2 K
readoutType: solubility (mole fraction)
Output: the number by itself.

Incoming: Please supply the value of reported solubility (mole fraction) for the item Cc1ccc(-c2ncc(Cl)cc2-c2ccc(S(C)(=O)=O)cc2)cn1
Outgoing: 0.0586
